- TARGET DESC: Protein cereblon/SWI/SNF-related matrix-associated actin-dependent regulator of chromatin subfamily A member 2 (Homo sapiens, UniProt P51531+Q96SW2)
- Sequence (P51531 whole entry): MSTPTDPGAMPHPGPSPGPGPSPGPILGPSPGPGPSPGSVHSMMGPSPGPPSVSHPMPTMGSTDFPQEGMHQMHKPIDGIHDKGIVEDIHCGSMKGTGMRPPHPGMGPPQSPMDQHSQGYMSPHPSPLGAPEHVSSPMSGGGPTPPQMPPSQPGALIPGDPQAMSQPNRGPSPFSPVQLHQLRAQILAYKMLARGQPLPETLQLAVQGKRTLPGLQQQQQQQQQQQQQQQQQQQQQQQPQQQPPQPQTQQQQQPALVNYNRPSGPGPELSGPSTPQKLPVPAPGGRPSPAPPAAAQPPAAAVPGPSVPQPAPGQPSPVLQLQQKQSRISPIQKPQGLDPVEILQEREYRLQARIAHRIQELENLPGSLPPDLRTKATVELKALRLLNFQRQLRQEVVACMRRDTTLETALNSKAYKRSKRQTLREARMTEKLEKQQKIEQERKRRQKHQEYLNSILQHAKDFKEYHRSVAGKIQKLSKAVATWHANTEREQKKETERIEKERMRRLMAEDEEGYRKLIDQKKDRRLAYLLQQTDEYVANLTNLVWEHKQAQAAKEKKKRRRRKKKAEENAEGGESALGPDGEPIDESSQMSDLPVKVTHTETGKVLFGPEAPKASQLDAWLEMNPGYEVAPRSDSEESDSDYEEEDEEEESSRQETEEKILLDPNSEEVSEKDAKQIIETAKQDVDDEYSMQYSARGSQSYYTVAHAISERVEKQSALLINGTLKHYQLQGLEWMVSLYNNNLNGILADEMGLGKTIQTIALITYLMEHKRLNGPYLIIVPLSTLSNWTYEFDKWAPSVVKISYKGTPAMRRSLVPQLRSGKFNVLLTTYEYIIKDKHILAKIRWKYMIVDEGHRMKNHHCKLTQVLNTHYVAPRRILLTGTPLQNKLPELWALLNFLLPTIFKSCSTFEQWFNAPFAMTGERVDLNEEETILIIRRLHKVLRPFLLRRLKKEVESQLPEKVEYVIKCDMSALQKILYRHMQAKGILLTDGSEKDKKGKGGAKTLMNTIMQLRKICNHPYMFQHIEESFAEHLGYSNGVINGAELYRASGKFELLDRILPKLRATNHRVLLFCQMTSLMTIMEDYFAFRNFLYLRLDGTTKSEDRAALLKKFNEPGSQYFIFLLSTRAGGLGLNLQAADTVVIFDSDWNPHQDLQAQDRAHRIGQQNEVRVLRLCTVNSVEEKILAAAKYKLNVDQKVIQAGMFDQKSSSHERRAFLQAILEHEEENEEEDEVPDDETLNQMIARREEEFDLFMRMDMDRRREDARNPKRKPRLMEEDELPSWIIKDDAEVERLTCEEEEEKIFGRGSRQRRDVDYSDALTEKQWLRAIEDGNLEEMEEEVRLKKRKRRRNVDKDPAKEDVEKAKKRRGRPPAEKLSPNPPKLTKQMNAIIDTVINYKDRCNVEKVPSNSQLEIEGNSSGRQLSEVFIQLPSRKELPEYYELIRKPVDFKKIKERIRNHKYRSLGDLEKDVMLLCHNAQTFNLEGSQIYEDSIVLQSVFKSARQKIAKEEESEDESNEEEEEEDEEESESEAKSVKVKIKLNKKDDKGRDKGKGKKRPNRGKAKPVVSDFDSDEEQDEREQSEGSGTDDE
- Sequence (Q96SW2 whole entry): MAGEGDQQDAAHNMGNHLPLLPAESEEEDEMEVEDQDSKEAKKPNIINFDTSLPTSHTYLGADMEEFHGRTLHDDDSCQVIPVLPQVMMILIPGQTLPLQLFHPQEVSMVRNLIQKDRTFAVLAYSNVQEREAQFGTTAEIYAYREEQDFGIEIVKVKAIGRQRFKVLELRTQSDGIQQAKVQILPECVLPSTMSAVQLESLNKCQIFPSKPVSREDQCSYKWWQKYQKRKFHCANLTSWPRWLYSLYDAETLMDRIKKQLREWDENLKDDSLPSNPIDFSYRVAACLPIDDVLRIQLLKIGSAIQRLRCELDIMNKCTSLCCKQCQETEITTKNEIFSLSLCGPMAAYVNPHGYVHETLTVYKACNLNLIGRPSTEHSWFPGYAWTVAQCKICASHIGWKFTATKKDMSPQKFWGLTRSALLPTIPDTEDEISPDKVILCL
- METHOD NOTES: PROTAC activity at CRBN/N-terminal HiBiT-tagged SMARCA2 in human A549 cells assessed as induction of SMARCA2 degradation incubated for 6 hrs by Nano-Glo HiBiT Lytic reagent based luminescence plate reader analysis
- Format: cell-based
MEASUREMENT TYPE: DC50 (nM)
Answers are plain numbers, in nM.

List DC50 for every entry below, keeping the order given.
1. Nc1nnc(-c2ccccc2O)cc1C1C[C@H]2COC[C@@H](C1)N2c1cccc(OC2CCN(C(=O)CC3(O)CCN(c4cccc5c4CCN5C4CCC(=O)NC4=O)CC3)CC2)c1 (some centres undefined)
2. CN(C(=O)N1CCC(Oc2cccc(N3[C@@H]4COC[C@H]3CC(c3cc(-c5ccccc5O)nnc3N)C4)c2)CC1)C1CCN(c2cccc3c2CCN3[C@@H]2CCC(=O)NC2=O)CC1 (some centres undefined)
3. Nc1nnc(-c2ccccc2O)cc1C1C[C@H]2COC[C@@H](C1)N2c1cccc(OC2CCN(C(=O)CCC3CN(c4cccc5c4CCN5[C@@H]4CCC(=O)NC4=O)C3)CC2)c1 (some centres undefined)
4. CN(c1cccc(N2CCC(O)(CC(=O)N3CCC(Oc4cccc(N5[C@@H]6COC[C@H]5CC(c5cc(-c7ccccc7O)nnc5N)C6)c4)CC3)CC2)c1)C1CCC(=O)NC1=O (some centres undefined)

5.8
9.47
13
13.1
